The entries below are paired with their reported IC50.
target: CDK2/Cyclin E1 (Homo sapiens); experiment: ADP-Glo Luminescent Kinase Assay (CDK2/E1-37C); assay type: biochemical; conditions: 0.18 nM CDK2/Cyclin E1, 100 μM ATP, 1.5 μM Histone H1, 37° C., 60 min pre-incubation; read-out: ADPGLO (CDK2/E1-37C): IC50

# count of solved cases: 5
C[C@@H](OCC12CCC(CC1)OC2)[C@H](NC(=O)[C@@H]1CN(C(=O)c2cnn(Cc3ccc(C(F)(F)F)cc3)c2)CC12CN(C(=O)C1(C(F)(F)F)CC1)C2)C(=O)N1CCC(c2nccs2)CC1
< 500 nM
COC(=O)C(C)(C)Oc1ccc(C2CCN(C(=O)[C@@H](NC(=O)[C@@H]3CN(C(=O)c4cnn(Cc5ccc(C(F)(F)F)cc5)c4)CC34CN(C(=O)C3(C(F)(F)F)CC3)C4)[C@@H](C)OCC34CCC(CC3)OC4)CC2)cc1C(F)(F)F (stereo in doubt) [Example I-5]
> 10000 nM
CC1(C)C[C@@H]1C(=O)N1CC2(CN(C(=O)c3cncs3)C[C@H]2C(=O)N2CCN(CC3CCCCC3)C(CC(=O)O)C2)C1 (stereo partly shown)
> 10000 nM
C[C@@H](OCC12CCC(CC1)OC2)[C@H](NC(=O)[C@@H]1CN(C(=O)c2cncs2)CC12CN(C(=O)C1(C(F)(F)F)CC1)C2)C(=O)N1CCC(c2nccs2)CC1
< 500 nM
C[C@@H](OCC12CCC(CC1)OC2)[C@H](NC(=O)[C@@H]1CN(C(=O)c2cnn(Cc3ccccc3C(=O)OC(C)(C)C)c2)CC12CN(C(=O)C1(C(F)(F)F)CC1)C2)C(=O)NCCC1CCN(C(=O)OC(C)(C)C)CC1
< 500 nM

Now, please, on to the next compound.
IC50 recorded for this compound, C[C@@H](OCC1CCCCC1)[C@H](NC(=O)[C@@H]1CN(C(=O)c2cnn(Cc3ccccc3)c2)CC12CN(C(=O)[C@H]1CC1(C)C)C2)C(=O)N1CCCC[C@H]1C(=O)O , is < 500 nM

* * *

biological target: CDK2/Cyclin E1 (Homo sapiens, UniProt P24941); test: ADP-Glo Luminescent Kinase Assay (CDK2/E1-37C); type: biochemical; settings: 0.18 nM CDK2/Cyclin E1, 100 μM ATP, 1.5 μM Histone H1, 37° C., 60 min pre-incubation; read-out: ADPGLO (CDK2/E1-37C): IC50
The entries below are paired with their reported IC50.

C[C@@H](OCC12CCC(CC1)OC2)[C@H](NC(=O)[C@H]1CN(C(=O)c2cnc(O)cn2)CC12CN(C(=O)C1(C(F)(F)F)CC1)C2)C(=O)N1CCC(c2ccc(C(=O)O)c(C(F)(F)F)c2)CC1 (single isomer, unassigned)
500 to 5000 nM
C[C@@H](OCC1CCCCC1)[C@H](NC(=O)[C@@H]1CN(C(=O)c2cnn(Cc3ccccc3)c2)CC12CN(C(=O)[C@H]1CC1(C)C)C2)C(=O)N1CCC[C@@H](C(=O)O)C1
< 500 nM

IC50 recorded for this molecule, COC(=O)CCNC(=O)[C@@H](NC(=O)[C@@H]1CN(C(=O)c2cnn(Cc3ccc(C(F)(F)F)cc3)c2)CC12CN(C(=O)C1(C(F)(F)F)CC1)C2)[C@@H](C)OCC12CCC(CC1)OC2 , is 500 to 5000 nM

IC50 recorded for this molecule, C[C@@H](OCC12CCC(CC1)OC2)[C@H](NC(=O)[C@@H]1CN(C(=O)c2cnc(O)cn2)CC12CN(C(=O)C1(C(F)(F)F)CC1)C2)C(=O)N1CCC(c2ccc(C(=O)O)c(C(F)(F)F)c2)CC1 [I-89 3rd] , is < 500 nM

IC50 recorded for this molecule, COC(=O)[C@@H]1CCCCN1C(=O)[C@@H](NC(=O)[C@@H]1CN(C(=O)c2cnn(Cc3ccccc3)c2)CC12CN(C(=O)[C@H]1CC1(C)C)C2)[C@@H](C)OCC1CCCCC1 , is < 500 nM
